Data provenance: PubChem BioAssay (NCI)

- Test system: T-47D breast
- procedure.summary: NCI tumour cell line growth inhibition, 48 h
Listing: GI50 of selected compounds
measure.name: GI50

C/C(=C\C(=O)O[C@H]1[C@@H]2[C@H](C)CC[C@H]2[C@]2(C)O[C@@]1(C1CCCCC1)C[C@H]2OC(=O)CO)c1ccccc1    5.44 µM
CC(C)=CC[C@@H]1CC2(CC=C(C)C)C(=O)C(OC3(C(=O)c4ccccc4)C(=O)C4(CC=C(C)C)C[C@@H](CC=C(C)C)C(C)(C)C(CC=C(C)C)(C4=O)C3=O)(C(=O)c3ccccc3)C(=O)C(CC=C(C)C)(C2=O)C1(C)C (stereo partly drawn)    1.19 µM
O=C(CCCc1ccc(N(CCCl)CCCl)cc1)NCc1ccccc1    8.04 µM

* * *

- System: NCI-H23 lung
- procedure.summary: NCI tumour cell line growth inhibition, 48 h
Where a SMILES comes first, the peptide text is derived from it. Bridges are numbered along the chain shown (N, C = ends). The star is where a group is joined. Cbz = O=C(OCc1ccccc1)*
measure.name: TGI

O=c1[nH]c(=S)[nH]cc1CN1CCOCC1    > 100 µM
O=c1[nH]c2ccccc2n1C1CCNCC1    > 100 µM
COc1nc(NC2OC(COC(C)=O)C(OC(C)=O)C(OC(C)=O)C2OC(C)=O)c(N=CC=Nc2c(NC3OC(COC(C)=O)C(OC(C)=O)C(OC(C)=O)C3OC(C)=O)nc(OC)[nH]c2=O)c(=O)[nH]1 (stereo not drawn)    > 100 µM
C=CCOC(=O)Cn1cnc2c(N)ncnc21    > 100 µM
O=C1CSC(c2c[nH]c3ccccc23)N1c1cccc(Cl)c1 (stereo not drawn)    > 100 µM
CSC(=S)CC(O)[C@@H]1CC2c3ccccc3C1c1ccccc12 (stereo partly drawn)    22.2 µM
CN1C(=O)C(c2c[nH]c3ccccc23)=C(c2c[nH]c3ccccc23)C1=O    > 25 µM
CNC(=O)C1CCCCNC(=O)CCC(NC(=O)OCc2ccccc2)C(=O)N1 (stereo not drawn) (Cbz-Glu-Lys-NHMe; lactam 1-2; configuration not given here)    > 100 µM
C=CCC1(O)c2ccccc2C(=O)c2c(OCC(=O)OCC)ccc(OCC(=O)OCC)c21 (stereo not drawn)    > 100 µM
Cc1ccc(-c2n[nH]c(=O)n2/N=C\c2ccccc2O)cc1    > 100 µM
N/N=c1/nc2n(c3ncccc13)C=CNN2    > 100 µM
Cc1cn([C@@H]2O[C@H](CO[Si](C)(C)C(C)(C)C)[C@]3(O[C@H]3C(=O)NO)[C@H]2O[Si](C)(C)C(C)(C)C)c(=O)[nH]c1=O    3.66 µM
CCCCCCCCCCCCCCCCOCC(COP(=O)(O)OCC1OC(n2cc(CC)c(=O)[nH]c2=O)CC1O)OC(=O)CCCCCCCCCCCCCCC (stereo not drawn)    > 100 µM

* * *

- Test system: A498 renal
- procedure.summary: NCI tumour cell line growth inhibition, 48 h; in the data active = GI50 below about 0.43 µM; inactive = the rest
Labels: active, inactive

CCOC(=O)c1noc2c1CCc1c-2cn(Cc2ccc(OC)cc2)c1-c1cc(OC)c(OC)c(OC)c1    inactive
O=C1NN2CC(c3ccccc3)=NN=C2c2ccccc21    inactive
CC(C)=CC[C@@H]1CC2(CC=C(C)C)C(=O)C(OC3(C(=O)c4ccccc4)C(=O)C4(CC=C(C)C)C[C@@H](CC=C(C)C)C(C)(C)C(CC=C(C)C)(C4=O)C3=O)(C(=O)c3ccccc3)C(=O)C(CC=C(C)C)(C2=O)C1(C)C (some centres not stated)    inactive
CCN1CCN(CCC(=O)Nc2cccc(-n3cc(-c4ccncc4)c(-c4ccc(Cl)c(OC)c4)n3)c2)CC1    inactive
NS(=O)(=O)c1ccc(N(/C=C/C(=O)C(F)(F)F)CC(=O)c2ccc(F)cc2)cc1    active
CCCCn1c(=O)[nH]c(N)c([C@@H]2c3c([nH]c(=O)n(CCCC)c3=O)Oc3ccc4ccccc4c32)c1=O    inactive
CC(C)=CCC/C(C)=C/CC/C(C)=C/CSC[C@H](NC(=O)CCCCCN1CCN(C)CC1)C(=O)NC1CCCCCC1    inactive

* * *

- Test system: MDA-MB-435
- procedure.summary: NCI tumour cell line growth inhibition, 48 h
measure.name: TGI

C[N+]1([O-])C2CCC1CC(OC(=O)C(CO)c1ccccc1)C2 (configuration not stated)    > 100 µM
O=C1c2ccccc2-c2nnc3c(c21)Cc1ccccc1C3    > 10 µM
COc1ccc2c(c1)[C@@H](NC(C)=O)CCc1cc(OC)c(OC)c(OC)c1-2    0.0244 µM
C=CCc1cccc(C=O)c1O    > 100 µM
CC[C@@]1(OP(=O)(O)O)C(=O)OCc2c1cc1n(c2=O)Cc2cc3ccccc3nc2-1    2.11 µM
NC(N)=N/N=C\c1c(-c2cccc([N+](=O)[O-])c2)nc2sccn12    5.16 µM
CC1(C)N=C(N)N=C(N)N1c1ccc(OCCCNC(=O)Nc2ccc(S(=O)(=O)F)cc2)c(Cl)c1    > 100 µM
O=c1[nH]c2ccccc2n1C1CCNCC1    > 100 µM
CCCc1nnc2sc(COc3ccc(OCc4nn5c(CCC)nnc5s4)c(Cl)c3)nn12    59 µM
C/C(=C\C(=O)O[C@H]1[C@@H]2[C@H](C)CC[C@H]2[C@]2(C)O[C@@]1(C1CCCCC1)C[C@H]2OC(=O)CO)c1ccccc1    12.9 µM
COC1=C(C(c2cc(OC)c(OC)c(OC)c2)c2cc3c(cc2OC)OCO3)C(=O)OC1 (configuration not stated)    17.5 µM
Cn1cc(C2NC(=O)c3ccccc3N2)c2ccccc21 (configuration not stated)    > 100 µM
C#CCN(Cc1ccc2nc(-c3ccccc3)c(Cl)nc2c1)c1ccc(F)cc1    > 100 µM
CS(=O)(=O)OCCN(CCOS(C)(=O)=O)c1ccc(C=Nc2ccc(-c3csc(COc4ccccc4)n3)cc2)cc1    31.6 µM
COC(=NC(C)C)NC(C)C    > 100 µM
N#CC1=C(N)Oc2c(sc3c(Br)cccc23)C1c1ccc([N+](=O)[O-])cc1 (configuration not stated)    0.0807 µM
COc1cc([C@@H]2c3cc4c(cc3[C@H](OC3OC5COC(c6ccco6)OC5C(O)C3O)C3COC(=O)[C@@H]32)OCO4)cc(OC)c1OC (some centres not stated)    > 100 µM
NS(=O)(=O)c1ccc(NC(=S)NC(=O)Nc2ccc(Cl)c(Cl)c2)cc1    35.7 µM
O=C(/C=C\c1ccc(O)c(O)c1)c1ccccc1O    39.4 µM
CCOc1ccc(/C=C2\N=C(c3ccccc3)OC2=O)cc1    > 100 µM
CN1C(=O)C(c2c[nH]c3ccccc23)=C(c2c[nH]c3ccccc23)C1=O    16.2 µM
Cc1cn2cc(-c3cccs3)nc2s1    > 100 µM
O=C(O)c1ccc(N(/C=C/C(=O)C(F)(F)F)Cc2ccc(Cl)cc2)cc1    > 100 µM
Cc1ccc(S(=O)(=O)NNC(=O)Nc2cccc(C(F)(F)F)c2)cc1    > 100 µM
COc1ccc(N2C(=O)c3cc([N+](=O)[O-])cnc3S2(=O)=O)cc1    > 100 µM
CC(=O)N1C=Cc2c(c(C)c3c([nH]c4ccccc43)c2C)C1    27.4 µM
O=C1NN2CC(c3ccccc3)=NN=C2c2ccccc21    > 100 µM
C[N+]1(C)C2CC(OC(=O)C(CO)c3ccccc3)CC1C1OC12 (configuration not stated)    > 100 µM
C=CCC1(O)c2ccccc2C(=O)c2c(OCC(=O)OCC)ccc(OCC(=O)OCC)c21 (configuration not stated)    > 100 µM
CC1=C(CCCOC(=O)[C@H](N)CC(C)C)C2=C(C)C3(CC3)[C@@](C)(O)C(=O)C2=C1    27.6 µM
C=C1c2nc3ccccc3n2C=C(c2ccc(OC)cc2)N1c1ccc(OCCN2CCCCC2)cc1    > 74.9 µM
NC(Cc1ccc(CP(=O)(O)O)cc1)C(=O)O (configuration not stated)    > 100 µM
CCCCNC(=O)OCCN=c1c2ccccc2ccc2ccccc12    > 100 µM
C/C=C1/CC(C(=O)OC)N(C(=O)OCc2ccccc2)C1=S (configuration not stated)    > 100 µM
CC(C)=CCC/C(C)=C/CC/C(C)=C/CSC[C@H](NC(=O)CCCCCN1CCN(C)CC1)C(=O)NC1CCCCCC1    3.43 µM
Clc1ccc(/C=C/c2nc(-c3ccccc3)cn3c2nc2ccccc23)cc1Cl    > 100 µM
O=C1CSCC(=O)Nc2ccccc2N1    > 100 µM
CN(Cc1cnc2nc(N)nc(N)c2n1)c1ccc(C(=O)NCCCS(=O)(=O)O)cc1    > 100 µM
O=C(O)c1cc(CCc2ccc(O)c(O)c2)ccc1O    > 100 µM
CC(C)(C)N(Cc1ccccc1)C(=O)/C=C\S(=O)c1ccccc1 (configuration not stated)    11.3 µM
O=C(CCCc1ccc(N(CCCl)CCCl)cc1)NCc1ccccc1    18 µM
Cn1cc(-c2ccc3nc(-c4ccc(CC(=O)Nc5cc(C(C)(C)C)no5)cc4)cnc3c2)cn1    > 3 µM
